Molecular target: human recombinant adrenergic α2B receptor (Homo sapiens, UniProt P18089)
Construct: expressed in transfected cells; host or cells: CHO-K1
Sequence (P18089 whole entry): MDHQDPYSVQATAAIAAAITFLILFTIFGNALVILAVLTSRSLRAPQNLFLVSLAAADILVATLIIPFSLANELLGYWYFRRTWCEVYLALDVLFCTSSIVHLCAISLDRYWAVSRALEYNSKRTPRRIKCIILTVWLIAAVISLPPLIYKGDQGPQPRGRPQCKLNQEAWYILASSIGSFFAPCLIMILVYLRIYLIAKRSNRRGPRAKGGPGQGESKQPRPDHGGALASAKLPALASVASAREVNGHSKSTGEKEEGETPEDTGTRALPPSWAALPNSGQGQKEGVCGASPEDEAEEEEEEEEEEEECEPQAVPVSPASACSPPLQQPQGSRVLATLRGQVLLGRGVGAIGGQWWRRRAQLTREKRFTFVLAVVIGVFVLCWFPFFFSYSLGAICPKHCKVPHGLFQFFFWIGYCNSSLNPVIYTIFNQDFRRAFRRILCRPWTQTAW
Experiment: Radioligand binding, adrenergic α2B ([3H]Rauwolscine)
Conditions: read-out: Percentage inhibition of ligand binding, Adrenergic α2B (0.03 μM), compound at 0.03 μM; [3H]Rauwolscine; repeat datapoints each shown
Could you please report measured inhibition at 0.03 µM for the items listed next?
Give a bare numeral; the unit % is implied.

Lab note: human recombinant adrenergic α2B receptor (Homo sapiens, UniProt P18089) assay, enter inhibition at 0.03 µM for Cc1ccc2c(c1)c1c(n2CC(O)c2ccc(C(N)=O)nc2)CCN(C)C1 (stereo not shown) [144a] here
40

Report its inhibition at 0.03 µM with human recombinant adrenergic α2B receptor (Homo sapiens, UniProt P18089) as the test system: "C/C(=C\n1c2c(c3cc(C)ccc31)CN(C)CC2)c1cnc(N(C)C)nc1"
78

GET inhibition at 0.03 µM where system = human recombinant adrenergic α2B receptor (Homo sapiens, UniProt P18089) and item = Cc1ccc(C(O)Cn2c3c(c4cc(C)ccc42)CN(C)CC3)cc1 (racemic) [compound 183]
68

Recall the reported inhibition at 0.03 µM of Cc1ccc2c(c1)c1c(n2CCc2ccc(C)nc2)CCN2CCCC12 (single isomer, unassigned) [197b] on human recombinant adrenergic α2B receptor (Homo sapiens, UniProt P18089) and write it down.
101

====

Target: human recombinant adrenergic α2A receptor (Homo sapiens, UniProt P08913)
Construct: expressed in transfected cells; host or cells: insect Sf9 cells
Sequence (P08913 whole entry): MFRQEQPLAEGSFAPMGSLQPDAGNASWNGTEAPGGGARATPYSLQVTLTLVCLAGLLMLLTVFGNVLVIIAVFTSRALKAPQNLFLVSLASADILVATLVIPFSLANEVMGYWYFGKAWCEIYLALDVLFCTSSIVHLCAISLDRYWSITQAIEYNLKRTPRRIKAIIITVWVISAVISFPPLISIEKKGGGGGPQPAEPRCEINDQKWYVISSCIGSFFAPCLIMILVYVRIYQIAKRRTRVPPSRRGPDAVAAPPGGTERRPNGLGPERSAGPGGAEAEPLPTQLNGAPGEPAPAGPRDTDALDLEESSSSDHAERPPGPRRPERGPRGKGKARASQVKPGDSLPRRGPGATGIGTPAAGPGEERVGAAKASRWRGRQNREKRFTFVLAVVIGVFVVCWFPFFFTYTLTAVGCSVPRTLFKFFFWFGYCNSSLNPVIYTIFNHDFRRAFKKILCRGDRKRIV
Test: Radioligand binding, adrenergic α2A ([3H]MK-912)
Settings: read-out: Percentage inhibition of ligand binding, Adrenergic α2A (0.1 μM), compound at 0.1 μM; [3H]MK-912; repeat datapoints each shown
Assign inhibition at 0.1 µM to each entry below.
Output spec: scalar in %, unitless text.

Dear colleague, please send me the reported inhibition at 0.1 µM for CN1CCc2c(n(CC(C)(O)c3ccc(F)cc3)c3ccc(Cl)cc23)CC1 (stereo not drawn) when you can.
56

For the compound "COc1ccc2c(c1)c1c(n2/C=C(/C)c2ccncc2)CCN(C)C1" , report inhibition at 0.1 µM.
20

Tell us which inhibition at 0.1 µM value is on record for "C/C(=C\n1c2c(c3cc(C)ccc31)CN(C)CC2)c1c(C)noc1C"
27

Tell us which inhibition at 0.1 µM value is on record for Cc1ccc2c(c1)c1c(n2CC(C)(O)c2ccc(C)nc2)CCN2CCCC12 (stereo not drawn) [II-128a]
34

Give me measured inhibition at 0.1 µM, please, for this compound: "CN1CCc2c(c3cc(Cl)ccc3n2CCc2ccc(F)cc2)C1"
74

For Cc1ccc2c(c1)c1c(n2CC(CC(=O)C(C)(C)C)c2ccncc2)CCN(C)C1 (stereo not drawn) , write its inhibition at 0.1 µM.
26

For "COc1ccc(/C(C)=C/n2c3c(c4cc(Cl)ccc42)CCN(C)CC3)cc1F" , write its inhibition at 0.1 µM.
82

Tell me its inhibition at 0.1 µM given "C/C(=C\n1c2c(c3cc(C)ccc31)CCN(C)CC2)c1ccc(Cl)c(Cl)c1" as the entry.
94

Output measured inhibition at 0.1 µM for this item: Cc1ccc2c(c1)c1c(n2CC(C)(O)c2ccc[nH]c2=O)CCN(C)C1 (stereo not drawn)
-3

Look up and report measured inhibition at 0.1 µM for this entry: "Cc1ccc(CCn2c3c(c4ccccc42)CN(C)CC3)cc1"
89

Quick one: give measured inhibition at 0.1 µM for Cc1cnc2c(c1)c1c(n2CC(N=[N+]=[N-])c2ccncc2)CCN(C)C1 (stereo not drawn)
2

Output measured inhibition at 0.1 µM for this item: Cc1cnc2c(c1)c1c(n2CC(O)c2ccc(F)cc2)CCN(C)C1 (single isomer, unassigned) [136a]
16

Please give the documented inhibition at 0.1 µM of Cc1ccc2c(c1)c1c(n2CC(C(N)=O)c2ccncc2)CCN(C)C1 (stereo not drawn)
10

Tell me its inhibition at 0.1 µM given Cc1ccc2c(c1)c1c(n2CC(N)c2ccncc2)CN(C)CC1 (stereo not drawn) as the entry.
6

Give the value of inhibition at 0.1 µM reported for the following: COc1ccc(C(C)(O)Cn2c3c(c4cc(Cl)ccc42)C2CCC(C3)N2C)cc1F (stereo not drawn)
15

For COC(=O)CC(Cn1c2c(c3cc(C)ccc31)CN(C)CC2)c1ccncc1 (stereo not drawn) , write its inhibition at 0.1 µM.
8

Give the value of inhibition at 0.1 µM reported for the following: CN1CCc2c(c3ncccc3n2CC(O)c2ccncc2)C1 (stereo not drawn)
-1

Item "Cc1ccc(CCn2c3c(c4c(F)ccc(F)c42)CN(C)CC3)cn1" : provide inhibition at 0.1 µM
57

====

Molecular target: human recombinant adrenergic α2A receptor (Homo sapiens)
Construct: expressed in transfected cells; host or cells: insect Sf9 cells
Assay: Radioligand binding, adrenergic α2A ([3H]MK-912)
Details: compound at 0.1 μM; [3H]MK-912; repeat datapoints each shown; 0.1 µM
Kindly state Percentage inhibition of ligand binding, Adrenergic α2A (0.1 μM) for each of the entries shown.
Express your answer in %, writing the number without its unit.

Give the measured Percentage inhibition of ligand binding, Adrenergic α2A (0.1 μM) for "C/C(=C\n1c2c(c3cc(C)ccc31)CN(C)CC2)c1ccc(C)nc1"
72

Read the entry Cc1ccc2c(c1)c1c(n2CC(C)(OC(=O)C(C)C)c2cccnc2)CCN(C)C1 (single isomer, unassigned) [146b] and write its reported Percentage inhibition of ligand binding, Adrenergic α2A (0.1 μM).
21

Quote Percentage inhibition of ligand binding, Adrenergic α2A (0.1 μM) reported for Cc1ccc2c(c1)c1c(n2CC(C)(OCC(=O)O)c2cccnc2)CCN(C)C1 (single isomer, unassigned) [V-14b] please.
3

Dear colleague, please send me the reported Percentage inhibition of ligand binding, Adrenergic α2A (0.1 μM) for Cc1cnc2c(c1)c1c(n2CC(C)(O)c2ccc(C(F)(F)F)nc2)CCN(C)C1 (single isomer, unassigned) [II-108a] when you can.
−2

Please give the documented Percentage inhibition of ligand binding, Adrenergic α2A (0.1 μM) of Cc1ccc2c(c1)c1c(n2CC(C)(O)c2cccnc2)CCN2CCCC12 (single isomer, unassigned) [II-127a]
79

Give me measured Percentage inhibition of ligand binding, Adrenergic α2A (0.1 μM), please, for this compound: Cc1cnc2c(c1)c1c(n2CC(N)c2ccc(C#N)cc2)CCNC1 (single isomer, unassigned) [160b]
5

Answer with the recorded Percentage inhibition of ligand binding, Adrenergic α2A (0.1 μM) of Cc1cnc2c(c1)c1c(n2CCc2ccc(C)nc2)CCN2CCCCC12 (single isomer, unassigned) [IV-8b] only.
22

====

Target: human recombinant adrenergic α1D receptor (Homo sapiens, UniProt P25100)
Construct: expressed in transfected cells; host or cells: HEK-293
Sequence (P25100 1-572): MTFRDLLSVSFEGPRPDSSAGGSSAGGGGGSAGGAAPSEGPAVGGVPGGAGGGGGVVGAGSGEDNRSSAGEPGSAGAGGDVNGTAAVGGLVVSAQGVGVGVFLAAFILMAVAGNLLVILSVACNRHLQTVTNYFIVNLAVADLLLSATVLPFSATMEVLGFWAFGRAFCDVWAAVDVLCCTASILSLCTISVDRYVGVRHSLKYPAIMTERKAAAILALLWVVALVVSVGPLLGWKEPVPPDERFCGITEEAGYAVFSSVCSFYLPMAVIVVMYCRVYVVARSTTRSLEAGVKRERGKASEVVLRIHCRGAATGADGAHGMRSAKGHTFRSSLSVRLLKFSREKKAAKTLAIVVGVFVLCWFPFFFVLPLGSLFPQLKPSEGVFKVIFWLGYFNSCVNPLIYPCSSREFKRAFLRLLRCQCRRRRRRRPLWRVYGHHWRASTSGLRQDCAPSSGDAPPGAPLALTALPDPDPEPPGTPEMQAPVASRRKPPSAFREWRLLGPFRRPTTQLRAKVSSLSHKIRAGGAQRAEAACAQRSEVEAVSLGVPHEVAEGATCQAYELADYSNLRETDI
Assay: Radioligand binding, adrenergic α1D ([3H]Prazosin)
Settings: 0.1 μM compound; read-out: Percentage inhibition of ligand binding, Adrenergic α1D
Give measured inhibition at 0.1 µM for each item. Keep answers brief.
Reply with the number and its unit after it.

Return inhibition at 0.1 µM for the following molecule: "Cc1csc(C2=C(n3c4c(c5cc(C)ccc53)CN(C)CC4)CCC2)c1"
27%

Item "C/C(=C/n1c2c(c3cc(C)ccc31)CN(C)CC2)c1cccc2ccccc12" : provide inhibition at 0.1 µM
19%

Answer with reported inhibition at 0.1 µM of "C/C(=C/n1c2c(c3cc(C)ccc31)CN(C)CC2)c1cc(C)cs1"
85%

Note down inhibition at 0.1 µM recorded for "Cc1ccc2c(c1)c1c(n2C#Cc2cnc3ccccc3c2)CCN(C)C1"
66%

Please indicate inhibition at 0.1 µM recorded for "Cc1ccc(CCn2c3c(c4cc(C)ccc42)CN(C)CC3)nc1"
47%

Hello, please tell me recorded inhibition at 0.1 µM for this one: "Cc1ccc2c(c1)c1c(n2C#Cc2ccc(S(N)(=O)=O)cc2)CN(C)CC1"
16%

Given "C/C(=C\n1c2c(c3cc(C)ccc31)CN(C)CC2)c1cncc2ccccc12" , respond with its inhibition at 0.1 µM.
23%

Hello, please tell me recorded inhibition at 0.1 µM for this one: "Cc1cc(Br)c2c(c1)c1c(n2CCc2ccc(C)nc2)CCN(C)C1"
13%

Write down inhibition at 0.1 µM measured for item "Cc1ccc2c(c1)c1c(n2C#Cc2ccc(S(N)(=O)=O)s2)CCN(C)C1"
72%
